Listing of recorded Kd by entry.
study-system: RSV prefusion F (preF), subtype A (respiratory syncytial virus, subtype A, UniProt P03420 26-513)
experiment-description: BLI, IgG
Give just the numeric value; nM need not be written.

Would you please look over these solved cases?
binder	recorded-number
ADI-14589 (antibody, V domains shown) VH: QITLKESGPVLVKPSETLTLTCTVSGFSLSNAKMGVSWIRQPPGKALEWLAHIFSNDEKSYNTSLKNRLTISKDTSKSQVVLTMTNMDTVDTATYYCARINYYDSSGYYLANFDYWGQGTLVTVSS VL: NIRLTQSPSSLSASVGDRVTITCRASQRIASYLNWYQQKPGHAPKLLIHAASSLQSGVPSRFSGSGSGTDFTLTINSLLPEDFATYYCQQSYSSPPHSSPPLTFGGGTKVEIK	6.48
ADI-20965 (antibody, V domains shown) VH: QVQLVQSGAEVKKPGASVKVSCKASGYNFTNYGISWVRQAPGQGLEWMGWISTSNGNTHYAQKSQGRITLTTDTSTNTAYMEVRSLRSDDTAVYYCAREGPESTYDWYHFDSWGQGTLVTVSS VL: QSVVTQPPSVSVAPGQTAKITCGGNNIGSKTVHWYQLKAGQAPVLVVYDDSDRPSGIPERFSGSNSGNTATLTIRRVEAGDEADYFCQVWESASDHWVFGGGTKLTVL	0.121
ADI-21008 (antibody, V domains shown, also called Ab 259) VH: QVQLQESGAGLLKPSETLSLTCTVYGGTFSGYHWNWIRQPPGKGLEWIGEINHRENTDYNASLESRVTISVDTSKRQFSLKMNSVTVADTAVYYCARGIQVLTNLGTEVRVHQFLDLWGRGTLVTVSS VL: DIVLTQTPATLSLSPGERATLSCRASQSVSTYLAWYQQKPGQAPRLLIYDASNRAAGIPARFSGSGSGTDFTLTISSLEPEDFAVYYCQQRTNWLPLTFGGGTKVDIK	5.68

-- ask Could you share which Kd value was measured for ADI-20989 (antibody, V domains shown) VH: EVQLLESGPGLVKPSGTLSLTCAVSGGSIINSNWWSWVRQSPGKGLEWIGDIYHSGSTTYNPSLKSRVTISVDRSKNQYSLRLTSVTAADTAVYYCAKIGPDNRSGPDYYYFMDVWGKGTTVTVSS VL: EIVLTQSPSSLPASVGDRVTISCRASQSISNYVYWYQQKPGKAPKLLIYAASSLQSGVPSRFSGSGSGTDFTLSISSLQFEDFATYFCQQSYSTPPTFGQGTKLEIK ?
-- reply 4.8

-- ask Could you share which Kd value was measured for ADI-21010 (antibody, V domains shown) VH: EVQLVESGGGVVQPGRSLRLSCAASGFSFSTYGMHWVRQAPGKGLEWVGVIWYDETTKYYADSVKGRFSISRDNSKNMVYVQMNSLRADDTALYYCAREVWGGVFDIWGQGTTVTVSS VL: DIQMTQSPATLSASVGDRVTITCRASQNIVTWLAWYQQKPGKAPNLLIYKASSLESGVPSRFSGSGSGTEFTLTISSLQPDDFATYYCQHYNSYSGAFGQGTKVDIK ?
-- reply 3.58
